Recorded EC50 values for a group of compounds are listed next.
# Test system: CD4 T cells
# method: CD69 expression on aCD3/aCD28 stimulated isolated human CD4 T cells (flow cytometry)
# Assay type: cell-based
# condition details: 24 h after TCR stimulation, read-out: Activity Class CD69 (CD4)
Where a name gives a salt, the structure may show the parent alone.

Prompt line: # lookup: EC50 of Cl.N[C@H]1CS(=O)(=O)c2cc(F)c(C(=O)NCCCC(F)(F)F)cc2N(Cc2ccc(OC(F)(F)F)cc2)C1=O [Example 73, hydrochloride]
Response line: < 1.58 µM

Prompt line: Lookup N[C@H]1CS(=O)(=O)c2ccc(C(=O)NC3CC3(F)F)cc2N(Cc2ccc(Br)cc2)C1=O (stereo partly shown)
Response line: < 1.58 µM

Prompt line: Also, N[C@H]1C[S@+]([O-])c2cc(F)c(C(=O)NCCCC(F)(F)F)cc2N(Cc2ccc(Cl)cc2)C1=O (single isomer, unassigned) [Example 122, hydrochloride] please.
Response line: 1.58 to 5.01 µM

Prompt line: Input COc1ccc(CN2C(=O)[C@@H](N)CS(=O)(=O)c3cc(F)c(C(=O)NC4CC4(F)F)cc32)cc1 (stereo partly shown)
Response line: 1.58 to 5.01 µM

Prompt line: For Cl.N[C@H]1CS(=O)(=O)c2cc(F)c(C(=O)N[C@@H]3CC3(F)F)cc2N(Cc2ccc(Cl)cc2)C1=O (single isomer, unassigned) [Example 106, hydrochloride] then?
Response line: 1.58 to 5.01 µM

Prompt line: Further, for N[C@H]1CS(=O)(=O)c2cc(F)c(C(=O)NCc3ccccc3)cc2N(Cc2ccc(F)cc2)C1=O [Example 134, hydrochloride] ?
Response line: < 1.58 µM

Prompt line: Next up: COc1ccc(CN2C(=O)[C@@H](N)CS(=O)(=O)c3cc(F)c(C(=O)NCCCC(F)(F)F)cc32)cc1
Response line: < 1.58 µM

Prompt line: # iterate: COc1ccc(CN2C(=O)[C@@H](N)CS(=O)(=O)c3ccc(C(=O)NCCCC(F)(F)F)cc32)cc1
Response line: > 5.01 µM

Prompt line: Here is the next compound: COc1ccc(CN2C(=O)[C@@H](N)CS(=O)(=O)c3ccc(C(=O)NC4CCC(F)(F)CC4)cc32)cc1
Response line: 1.58 to 5.01 µM

Prompt line: Same lookup for N[C@H]1CS(=O)(=O)c2ccc(C(=O)N[C@@H]3CC3(F)F)cc2N(Cc2ccc(Cl)cc2)C1=O , please.
Response line: 1.58 to 5.01 µM

Prompt line: # iterate: N#Cc1ccc(CN2C(=O)[C@@H](N)CS(=O)(=O)c3cc(F)c(C(=O)NCCCC(F)(F)F)cc32)cc1 [Example 125, hydrochloride]
Response line: 1.58 to 5.01 µM

Prompt line: And the next one, C#CCOc1ccc(CNC(=O)c2cc3c(cc2F)S(=O)(=O)C[C@H](N)C(=O)N3Cc2ccc(Cl)cc2)cc1 ?
Response line: < 1.58 µM

Prompt line: Note, next up: N[C@H]1CS(=O)(=O)c2ccc(C(=O)N[C@@H]3CC3(F)F)cc2N(Cc2ccc(C3CC3)cc2)C1=O
Response line: < 1.58 µM

---

# Test system: aCD3/aCD28-stimulated human PBMCs
# method: Cytokine production in aCD3/aCD28 stimulated human PBMCs
# Assay type: cell-based
# condition details: PBMC, enhancement of IL-2 production, 18 h, read-out: Activity Class IL-2
Counter-ions that a name gives are not always drawn.
readout type: EC50

Prompt line: So what's the measured EC50 for this one? Cl.N[C@H]1CS(=O)(=O)c2cc(F)c(C(=O)NCC(F)(F)F)cc2N(Cc2ccc(Cl)cc2)C1=O [Example 92, hydrochloride]
Response line: 1.58 to 5.01 µM

Prompt line: One more compound: Cc1ccc(CNC(=O)c2ccc3c(c2)N(Cc2ccc(Cl)cc2)C(=O)[C@@H](N)CS3(=O)=O)cn1 [Example 168]
Response line: > 5.01 µM

Prompt line: Please do the same for Cl.N[C@H]1CS(=O)(=O)c2cc(F)c(C(=O)NCc3ccc(F)cc3)cc2N(Cc2ccc(Cl)cc2)C1=O [Example 68, hydrochloride] as well.
Response line: < 1.58 µM

Prompt line: Entry to check: N[C@H]1CS(=O)(=O)c2ccc(C(=O)N[C@@H]3CC3(F)F)cc2N(Cc2ccccc2)C1=O [Example 167]
Response line: > 5.01 µM

Prompt line: Cool, now COCCNC(=O)c1cc2c(cc1F)S(=O)(=O)C[C@H](N)C(=O)N2Cc1ccc(Cl)cc1 [Example 120, hydrochloride]
Response line: > 5.01 µM

More entries:
Prompt line: Recorded EC50 for N[C@H]1CS(=O)(=O)c2ccc(C(=O)N[C@@H]3CCC(F)(F)C3)cc2N(Cc2ccc(Cl)cc2)C1=O [Example 169] , please?
Response line: < 1.58 µM

Prompt line: And for COc1ccc(CNC(=O)c2cc3c(cc2F)S(=O)(=O)C[C@H](N)C(=O)N3Cc2ccc(Cl)cc2)cc1 [Example 137, hydrochloride] ?
Response line: < 1.58 µM
